B1: HDV Ribozyme (parent)
chain: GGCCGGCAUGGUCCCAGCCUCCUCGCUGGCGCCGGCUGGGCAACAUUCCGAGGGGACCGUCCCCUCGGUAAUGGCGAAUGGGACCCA

variants of: B1; test: self-cleavage, relative activity (ratio to wild type); higher = more cleavage; co-transcriptional
experimental_readout: self-cleavage

> print(dat)
    variant.annotation  test.result
 1           A43U C62G        0.332
 2           G34A G81C       0.0733
 3           C22U G50C        0.671
 4           G31U G74U        0.136
 5           G31U G34C        0.117
 6           G38C A77C        0.177
 7           G29C C64A       0.0755
 8           C19A C48G         0.22
 9            G5C G76A        0.415
10           U27A C64G         1.05
11           C75A U79A        0.256
12            A8C A83C        0.317
13           G34U C84G        0.161
14           C48A G55A        0.972
15           U12C C58A        0.475
16            U9C A56C         1.06
17           G53U C64U        0.853
18           U60A A83C        0.554
19           U46C G80A        0.185
20           A51U G55C         1.01

Recorded values, source the RNAGym collection of RNA variant scans (doi:10.7554/elife.80360).
